- TARGET: recombinant human NF-kappaB-inducing kinase (NIK/MAP3K14) (Homo sapiens, UniProt Q99558)
- Sequence (Q99558 whole entry): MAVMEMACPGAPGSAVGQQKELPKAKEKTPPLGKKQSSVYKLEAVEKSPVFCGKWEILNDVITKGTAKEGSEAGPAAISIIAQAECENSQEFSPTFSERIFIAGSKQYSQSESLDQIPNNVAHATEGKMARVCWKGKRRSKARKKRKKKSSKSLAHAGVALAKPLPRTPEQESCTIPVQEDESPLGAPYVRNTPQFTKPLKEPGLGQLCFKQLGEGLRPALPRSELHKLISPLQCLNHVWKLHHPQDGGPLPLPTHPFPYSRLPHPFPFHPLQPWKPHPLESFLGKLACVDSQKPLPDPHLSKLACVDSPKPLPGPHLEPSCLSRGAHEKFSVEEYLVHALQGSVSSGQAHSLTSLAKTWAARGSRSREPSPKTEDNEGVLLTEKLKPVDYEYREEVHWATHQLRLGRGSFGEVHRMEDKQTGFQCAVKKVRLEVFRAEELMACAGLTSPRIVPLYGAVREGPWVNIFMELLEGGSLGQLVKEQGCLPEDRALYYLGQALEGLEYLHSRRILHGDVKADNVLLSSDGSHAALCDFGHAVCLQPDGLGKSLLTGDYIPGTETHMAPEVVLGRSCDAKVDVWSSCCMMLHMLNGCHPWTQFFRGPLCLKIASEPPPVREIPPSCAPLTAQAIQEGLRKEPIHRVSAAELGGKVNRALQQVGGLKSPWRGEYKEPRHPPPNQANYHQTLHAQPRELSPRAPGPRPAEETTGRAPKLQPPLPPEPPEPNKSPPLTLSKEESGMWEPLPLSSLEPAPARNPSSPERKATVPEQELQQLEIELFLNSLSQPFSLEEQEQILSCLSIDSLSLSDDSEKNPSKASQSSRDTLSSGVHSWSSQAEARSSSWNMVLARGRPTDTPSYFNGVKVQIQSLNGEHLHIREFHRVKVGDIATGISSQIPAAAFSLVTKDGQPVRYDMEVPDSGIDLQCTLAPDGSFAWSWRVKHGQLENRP
- MEASUREMENT_NOTES: Inhibition of auto-phosphorylation of recombinant human NIK/MAP3K14 activity (AlphaScreen)
- MEASUREMENT_CONDITIONS: GST-tagged NIK/MAP3K14 1 nM, 5 μM ATP, 2 h at 25° C.; average of values obtained
pIC50: −log10 of the molar value.
MEASURED_ENDPOINT: pIC50

Example entries and their recorded answers appear below.
| COMPOUND | TARGET | pIC50 |
| --- | --- | --- |
| CN1CC[C@@](O)(c2cccc(-c3cc(-c4c[nH]c5ncccc45)nn3C)c2)C1=O | recombinant human NF-kappaB-inducing kinase (NIK/MAP3K14) (Homo sapiens, UniProt Q99558) | 6.30 to 7.00 |
| O[C@@]1(c2cccc(-c3nc(-c4c[nH]c5ncccc45)cs3)c2)CCc2cccnc21 (single isomer, unassigned) | recombinant human NF-kappaB-inducing kinase (NIK/MAP3K14) (Homo sapiens, UniProt Q99558) | ≥ 7.00 |
| CN1CC[C@@](O)(c2cccc(-c3cc(-c4c[nH]c5ncccc45)co3)c2)C1=O | recombinant human NF-kappaB-inducing kinase (NIK/MAP3K14) (Homo sapiens, UniProt Q99558) | < 6.30 |
| CN1CC[C@@](O)(c2cccc(-c3csc(-c4c(F)[nH]c5ncc(F)cc45)n3)c2)C1=O | recombinant human NF-kappaB-inducing kinase (NIK/MAP3K14) (Homo sapiens, UniProt Q99558) | 6.30 to 7.00 |
| CN1CC[C@@](O)(c2cccc(-c3csc(-c4c[nH]c5ncccc45)n3)c2)C1=O (single isomer, unassigned) | recombinant human NF-kappaB-inducing kinase (NIK/MAP3K14) (Homo sapiens, UniProt Q99558) | ≥ 7.00 |
| C[C@@](O)(c1cccc(-c2csc(-c3c[nH]c4ncccc34)n2)c1)c1ccccn1 (single isomer, unassigned) | recombinant human NF-kappaB-inducing kinase (NIK/MAP3K14) (Homo sapiens, UniProt Q99558) | < 6.30 |
| CN1CC[C@@](O)(c2cccc(-c3nc(-c4cccc5[nH]ncc45)cs3)c2)C1=O | recombinant human NF-kappaB-inducing kinase (NIK/MAP3K14) (Homo sapiens, UniProt Q99558) | < 6.30 |
| O=C1Nc2cccnc2[C@@]1(O)c1cccc(-c2csc(-c3c[nH]c4ncccc34)n2)c1 (single isomer, unassigned) | recombinant human NF-kappaB-inducing kinase (NIK/MAP3K14) (Homo sapiens, UniProt Q99558) | < 6.30 |

Now consider a different compound.
# pIC50 of CN1CC[C@@](O)(c2cccc(-c3nc(-c4c(Cl)cnc5[nH]ccc45)cs3)c2)C1=O = < 6.30

---

- TARGET: recombinant human NF-kappaB-inducing kinase (NIK/MAP3K14) (Homo sapiens)
- MEASUREMENT_NOTES: Inhibition of auto-phosphorylation of recombinant human NIK/MAP3K14 activity (AlphaScreen)
- Type: biochemical
- MEASUREMENT_CONDITIONS: GST-tagged NIK/MAP3K14 1 nM, 5 μM ATP, 2 h at 25° C.; average of values obtained
- Procedure: Inhibition of Auto-Phosphorylation of Recombinant Human NF-kappaB-Inducing Kinase (NIK/MAP3K14) Activity (AlphaScreen®) NIK/MAP3K14 auto-phosphorylation activity was measured using the AlphaScreen® (αscreen) format (Perkin Elmer). […] Protein A Acceptor and Glutathione-Donor beads were added before reading using an EnVision Multilabel Plate Reader (Perkin Elmer). […] IC50's were determined by fitting a sigmoidal curve to % inhibition of control versus Log10 compound concentration.
pIC50: −log10 of the molar value.
MEASURED_ENDPOINT: pIC50

Reported pIC50 for O[C@@]1(c2cccc(-c3csc(-c4c[nH]c5nnccc45)n3)c2)CCn2ccnc21 was ≥ 7.00
